# IC50 values compiled below
measurement.target: rNaV1.3 (Rattus norvegicus)
Sequence (P08104 whole entry): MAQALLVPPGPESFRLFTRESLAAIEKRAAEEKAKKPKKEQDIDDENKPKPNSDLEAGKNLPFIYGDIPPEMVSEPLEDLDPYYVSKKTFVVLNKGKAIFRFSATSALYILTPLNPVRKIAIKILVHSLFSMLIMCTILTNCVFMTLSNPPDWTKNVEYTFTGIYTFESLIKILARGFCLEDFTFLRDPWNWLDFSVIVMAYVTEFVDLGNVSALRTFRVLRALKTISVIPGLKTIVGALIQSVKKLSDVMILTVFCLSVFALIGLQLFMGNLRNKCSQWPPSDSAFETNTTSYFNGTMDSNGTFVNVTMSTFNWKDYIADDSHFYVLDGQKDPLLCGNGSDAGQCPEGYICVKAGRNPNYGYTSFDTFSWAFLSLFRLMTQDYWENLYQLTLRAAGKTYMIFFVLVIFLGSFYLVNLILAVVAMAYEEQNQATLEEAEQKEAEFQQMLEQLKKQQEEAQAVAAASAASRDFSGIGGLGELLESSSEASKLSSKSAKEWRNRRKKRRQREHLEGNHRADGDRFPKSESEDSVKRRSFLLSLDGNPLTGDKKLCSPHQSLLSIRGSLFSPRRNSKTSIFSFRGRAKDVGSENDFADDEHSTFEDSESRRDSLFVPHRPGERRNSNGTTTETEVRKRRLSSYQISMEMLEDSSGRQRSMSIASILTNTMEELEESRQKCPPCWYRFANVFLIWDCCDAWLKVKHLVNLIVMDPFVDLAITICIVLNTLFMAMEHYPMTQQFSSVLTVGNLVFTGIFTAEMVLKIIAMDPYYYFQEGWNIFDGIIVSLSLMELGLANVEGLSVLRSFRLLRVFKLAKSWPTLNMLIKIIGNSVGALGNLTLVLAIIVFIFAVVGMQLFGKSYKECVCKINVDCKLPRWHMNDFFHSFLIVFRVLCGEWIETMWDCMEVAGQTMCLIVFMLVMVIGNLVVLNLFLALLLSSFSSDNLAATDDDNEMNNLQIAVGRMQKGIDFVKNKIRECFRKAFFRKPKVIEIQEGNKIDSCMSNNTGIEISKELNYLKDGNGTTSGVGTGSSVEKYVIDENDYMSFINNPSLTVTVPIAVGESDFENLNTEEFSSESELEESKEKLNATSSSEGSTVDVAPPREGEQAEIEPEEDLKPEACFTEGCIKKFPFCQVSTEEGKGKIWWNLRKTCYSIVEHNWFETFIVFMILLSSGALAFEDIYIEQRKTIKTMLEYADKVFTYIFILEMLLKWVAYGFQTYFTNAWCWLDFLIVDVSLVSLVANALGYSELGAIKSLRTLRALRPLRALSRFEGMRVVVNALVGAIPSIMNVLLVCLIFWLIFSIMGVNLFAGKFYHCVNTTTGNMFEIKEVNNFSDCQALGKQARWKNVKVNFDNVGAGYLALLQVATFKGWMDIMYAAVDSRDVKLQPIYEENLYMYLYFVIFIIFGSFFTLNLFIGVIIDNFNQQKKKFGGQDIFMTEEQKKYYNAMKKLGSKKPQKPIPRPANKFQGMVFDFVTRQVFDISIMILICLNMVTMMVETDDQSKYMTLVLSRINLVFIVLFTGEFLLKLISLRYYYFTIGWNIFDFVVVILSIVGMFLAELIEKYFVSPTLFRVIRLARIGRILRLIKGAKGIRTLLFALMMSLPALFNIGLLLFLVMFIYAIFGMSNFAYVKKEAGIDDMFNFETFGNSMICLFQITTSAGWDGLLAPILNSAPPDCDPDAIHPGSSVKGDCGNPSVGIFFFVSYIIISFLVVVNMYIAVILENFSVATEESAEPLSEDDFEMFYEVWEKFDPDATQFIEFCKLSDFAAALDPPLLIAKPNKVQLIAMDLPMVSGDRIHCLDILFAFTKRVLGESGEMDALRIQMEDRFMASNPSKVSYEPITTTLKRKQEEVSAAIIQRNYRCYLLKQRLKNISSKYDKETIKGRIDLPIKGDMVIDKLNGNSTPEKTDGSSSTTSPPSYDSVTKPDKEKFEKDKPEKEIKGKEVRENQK
Sequence (Q00954 19-218 partner): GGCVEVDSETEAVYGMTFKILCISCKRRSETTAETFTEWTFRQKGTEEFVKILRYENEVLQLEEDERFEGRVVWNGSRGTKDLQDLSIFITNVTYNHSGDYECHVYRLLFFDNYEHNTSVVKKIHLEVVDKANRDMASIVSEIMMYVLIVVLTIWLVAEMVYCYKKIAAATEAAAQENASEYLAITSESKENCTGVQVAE
Where a SMILES comes first, the peptide text is derived from it. Bridges are numbered along the chain shown (N, C = ends).
Enter your answer as a number in nM; do not include the unit.

Solved entries (count: 2):
compound: C[C@@H]1NC(=O)[C@H](Cc2c[nH]c3ccccc23)NC(=O)[C@H](CCCNC(=N)N)NC(=O)[C@H](CCCNC(=N)N)NC(=O)[C@@H](N)CSSC[C@@H](C(N)=O)NC(=O)[C@H](CCCNC(=N)N)NC(=O)[C@H](CC(N)=O)NC(=O)[C@H](Cc2ccc(O)cc2)NC(=O)[C@H](CCCNC(=N)N)NC1=O [PnCS1[W7Y], CRRWARYNRC ^*] (H-CRRWARYNRC-NH2; disulfide 1-10)
unit.symbol: nM
IC50: 4100
//
compound: C[C@@H]1NC(=O)[C@H](Cc2c[nH]c3ccccc23)NC(=O)[C@H](CCCNC(=N)N)NC(=O)[C@H](CCCNC(=N)N)NC(=O)[C@@H](N)CSSC[C@@H](C(N)=O)NC(=O)[C@H](CCCNC(=N)N)NC(=O)[C@H](CC(N)=O)NC(=O)[C@H](Cc2c[nH]c3ccccc23)NC(=O)[C@H](CCCNC(=N)N)NC1=O [PnCS1, CRRWARWNRC ^*] (H-CRRWARWNRC-NH2; disulfide 1-10)
unit.symbol: nM
IC50: 1100

Now, please, on to the next compound.
*Q* Please report IC50 with rNaV1.3 (Rattus norvegicus) for item C[C@@H]1NC(=O)[C@H](CCCCN)NC(=O)[C@H](CCCNC(=N)N)NC(=O)[C@H](CCCNC(=N)N)NC(=O)[C@@H](N)CSSC[C@@H](C(N)=O)NC(=O)[C@H](CCCNC(=N)N)NC(=O)[C@H](CC(N)=O)NC(=O)[C@H](Cc2c[nH]c3ccccc23)NC(=O)[C@H](CCCNC(=N)N)NC1=O [PnCS1[W4K], CRRKARWNRC ^*] (H-CRRKARWNRC-NH2; disulfide 1-10) .
*A* 1300

---

measurement.target: UniProt:P15390
Where a SMILES comes first, the peptide text is derived from it. Bridges are numbered along the chain shown (N, C = ends).
Known IC50 of a selection of molecules
Give a bare numeral; the unit µM is implied.

Completed entries (count: 2):
molecule: C[C@@H]1NC(=O)[C@H](Cc2c[nH]c3ccccc23)NC(=O)[C@H](CCCNC(=N)N)NC(=O)[C@H](CCCNC(=N)N)NC(=O)[C@@H](N)CSSC[C@@H](C(N)=O)NC(=O)[C@H](CCCCN)NC(=O)[C@H](CC(N)=O)NC(=O)[C@H](Cc2c[nH]c3ccccc23)NC(=O)[C@H](CCCNC(=N)N)NC1=O [PnCS1[R9K], CRRWARWNKC ^*] (H-CRRWARWNKC-NH2; disulfide 1-10)
experimental.value: 6.1

molecule: C[C@@H]1NC(=O)[C@H](C)NC(=O)[C@H](CCCNC(=N)N)NC(=O)[C@H](CCCNC(=N)N)NC(=O)[C@@H](N)CSSC[C@@H](C(N)=O)NC(=O)[C@H](CCCNC(=N)N)NC(=O)[C@H](CC(N)=O)NC(=O)[C@H](Cc2c[nH]c3ccccc23)NC(=O)[C@H](CCCNC(=N)N)NC1=O [PnCS1[W4A], CRRAARWNRC ^*] (H-CRRAARWNRC-NH2; disulfide 1-10)
experimental.value: 0.7

Lab note: next molecule to report on.
*Q* Give reported IC50 for C[C@@H]1NC(=O)[C@H](CCCCN)NC(=O)[C@H](CCCNC(=N)N)NC(=O)[C@H](CCCNC(=N)N)NC(=O)[C@@H](N)CSSC[C@@H](C(N)=O)NC(=O)[C@H](CCCNC(=N)N)NC(=O)[C@H](CC(N)=O)NC(=O)[C@H](Cc2c[nH]c3ccccc23)NC(=O)[C@H](CCCNC(=N)N)NC1=O [PnCS1[W4K], CRRKARWNRC ^*] (H-CRRKARWNRC-NH2; disulfide 1-10) (UniProt:P15390)
*A* 0.7

---

Property: inhibition at 100 µM; scope: individual compounds
measurement.target: mNaV1.6 (Mus musculus, UniProt Q9WTU3)
Sequence (Q9WTU3 whole entry): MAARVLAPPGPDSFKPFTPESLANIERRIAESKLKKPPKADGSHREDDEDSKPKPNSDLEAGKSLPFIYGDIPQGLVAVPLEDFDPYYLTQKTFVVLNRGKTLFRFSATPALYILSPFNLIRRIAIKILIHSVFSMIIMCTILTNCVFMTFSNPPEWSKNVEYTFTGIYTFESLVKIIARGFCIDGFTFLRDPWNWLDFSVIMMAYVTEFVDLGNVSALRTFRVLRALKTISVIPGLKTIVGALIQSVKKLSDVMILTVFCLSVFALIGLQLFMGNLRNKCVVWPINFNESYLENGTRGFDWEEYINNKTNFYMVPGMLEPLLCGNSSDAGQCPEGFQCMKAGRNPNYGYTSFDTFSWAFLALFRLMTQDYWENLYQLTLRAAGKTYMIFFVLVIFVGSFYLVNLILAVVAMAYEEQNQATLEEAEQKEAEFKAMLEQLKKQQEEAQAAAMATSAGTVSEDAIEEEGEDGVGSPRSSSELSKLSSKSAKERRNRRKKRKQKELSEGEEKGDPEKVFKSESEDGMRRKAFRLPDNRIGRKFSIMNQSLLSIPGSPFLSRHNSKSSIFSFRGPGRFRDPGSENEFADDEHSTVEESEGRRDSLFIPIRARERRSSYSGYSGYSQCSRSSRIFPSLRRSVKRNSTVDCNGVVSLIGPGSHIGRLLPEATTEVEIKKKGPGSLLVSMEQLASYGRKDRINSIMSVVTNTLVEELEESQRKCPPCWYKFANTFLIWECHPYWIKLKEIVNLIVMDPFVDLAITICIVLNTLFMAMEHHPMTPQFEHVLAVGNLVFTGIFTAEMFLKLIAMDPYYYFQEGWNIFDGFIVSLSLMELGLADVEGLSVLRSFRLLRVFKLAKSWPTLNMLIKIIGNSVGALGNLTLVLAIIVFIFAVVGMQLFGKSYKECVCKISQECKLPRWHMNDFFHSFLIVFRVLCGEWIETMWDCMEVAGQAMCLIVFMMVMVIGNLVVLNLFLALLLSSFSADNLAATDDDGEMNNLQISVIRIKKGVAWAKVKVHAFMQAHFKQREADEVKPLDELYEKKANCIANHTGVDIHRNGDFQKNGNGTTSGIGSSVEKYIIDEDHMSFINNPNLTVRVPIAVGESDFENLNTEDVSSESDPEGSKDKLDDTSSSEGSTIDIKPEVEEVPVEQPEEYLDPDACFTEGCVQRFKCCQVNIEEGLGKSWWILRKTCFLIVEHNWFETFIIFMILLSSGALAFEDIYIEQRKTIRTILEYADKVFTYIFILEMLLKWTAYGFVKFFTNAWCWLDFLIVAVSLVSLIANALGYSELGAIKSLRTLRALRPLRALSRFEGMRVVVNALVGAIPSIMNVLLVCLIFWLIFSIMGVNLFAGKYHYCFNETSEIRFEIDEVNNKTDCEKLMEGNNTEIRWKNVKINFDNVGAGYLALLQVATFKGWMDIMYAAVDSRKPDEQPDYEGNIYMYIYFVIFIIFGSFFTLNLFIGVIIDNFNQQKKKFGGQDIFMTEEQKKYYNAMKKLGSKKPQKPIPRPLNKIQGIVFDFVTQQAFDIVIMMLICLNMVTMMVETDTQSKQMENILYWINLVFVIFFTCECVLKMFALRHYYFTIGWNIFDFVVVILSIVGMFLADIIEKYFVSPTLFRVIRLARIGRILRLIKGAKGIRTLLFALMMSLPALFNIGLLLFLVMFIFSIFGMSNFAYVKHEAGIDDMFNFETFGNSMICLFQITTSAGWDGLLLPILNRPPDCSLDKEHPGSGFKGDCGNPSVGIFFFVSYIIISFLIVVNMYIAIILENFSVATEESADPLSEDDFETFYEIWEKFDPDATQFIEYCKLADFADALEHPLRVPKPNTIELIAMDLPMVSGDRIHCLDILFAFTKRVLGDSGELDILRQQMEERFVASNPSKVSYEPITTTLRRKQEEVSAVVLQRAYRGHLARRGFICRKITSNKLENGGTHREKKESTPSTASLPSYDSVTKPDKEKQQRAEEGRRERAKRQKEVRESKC
experiment.summary: Two-electrode voltage-clamp on Xenopus laevis oocytes expressing NaV1.6
experimental.conditions: read-out: Maximum % inhibition NaV1.6, peptide at 100 μM
Where a SMILES comes first, the peptide text is derived from it. Bridges are numbered along the chain shown (N, C = ends).

compound: CC(=O)N[C@H]1CSSC[C@@H](C(N)=O)NC(=O)[C@H](CCCNC(=N)N)NC(=O)[C@H](CC(N)=O)NC(=O)[C@H](Cc2c[nH]c3ccccc23)NC(=O)[C@H](CCCNC(=N)N)NC(=O)[C@H](C)NC(=O)[C@H](Cc2c[nH]c3ccccc23)NC(=O)[C@H](CCCNC(=N)N)NC(=O)[C@H](CCCNC(=N)N)NC1=O [PnCS1AcAm, Ac-CRRWARWNRC ^*] (Ac-CRRWARWNRC-NH2; disulfide 1-10)
inhibition at 100 µM: 0%
--
compound: CC(=O)N[C@H]1CSSC[C@@H](C(=O)O)NC(=O)[C@H](CCCNC(=N)N)NC(=O)[C@H](CC(N)=O)NC(=O)[C@H](Cc2c[nH]c3ccccc23)NC(=O)[C@H](CCCNC(=N)N)NC(=O)[C@H](C)NC(=O)[C@H](Cc2c[nH]c3ccccc23)NC(=O)[C@H](CCCNC(=N)N)NC(=O)[C@H](CCCNC(=N)N)NC1=O [PnCS1Ac, Ac-CRRWARWNRC] (Ac-CRRWARWNRC-OH; disulfide 1-10)
inhibition at 100 µM: 0%

Note: attention shifts to another entry.
*Q* Output measured inhibition at 100 µM for this item: C[C@@H]1NC(=O)[C@H](Cc2c[nH]c3ccccc23)NC(=O)[C@H](CCCCN)NC(=O)[C@H](CCCNC(=N)N)NC(=O)[C@@H](N)CSSC[C@@H](C(N)=O)NC(=O)[C@H](CCCNC(=N)N)NC(=O)[C@H](CC(N)=O)NC(=O)[C@H](Cc2c[nH]c3ccccc23)NC(=O)[C@H](CCCNC(=N)N)NC1=O [PnCS1[R3K], CRKWARWNRC ^*] (H-CRKWARWNRC-NH2; disulfide 1-10)
*A* 86%

---

inhibition at 100 µM values, listed per item
measurement.target: rNaV1.2 (Rattus norvegicus, UniProt P04775)
experiment.summary: Two-electrode voltage-clamp on Xenopus laevis oocytes expressing NaV1.2
experimental.conditions: read-out: Maximum % inhibition NaV1.2, peptide at 100 μM
Where a SMILES comes first, the peptide text is derived from it. Bridges are numbered along the chain shown (N, C = ends).
Unit % implied. Number only.

Sample records with inhibition at 100 µM:
compound: C[C@@H]1NC(=O)[C@H](C)NC(=O)[C@H](Cc2c[nH]c3ccccc23)NC(=O)[C@H](CCCNC(=N)N)NC(=O)[C@H](CCCNC(=N)N)NC(=O)[C@@H](N)CSSC[C@@H](C(N)=O)NC(=O)[C@H](CCCNC(=N)N)NC(=O)[C@H](CC(N)=O)NC(=O)[C@H](Cc2c[nH]c3ccccc23)NC1=O [PnCS1[R6A], CRRWAAWNRC ^*] (H-CRRWAAWNRC-NH2; disulfide 1-10)
inhibition at 100 µM, %: 73

compound: C[C@@H]1NC(=O)[C@H](CCCCN)NC(=O)[C@H](CCCNC(=N)N)NC(=O)[C@H](CCCNC(=N)N)NC(=O)[C@@H](N)CSSC[C@@H](C(N)=O)NC(=O)[C@H](CCCNC(=N)N)NC(=O)[C@H](CC(N)=O)NC(=O)[C@H](Cc2c[nH]c3ccccc23)NC(=O)[C@H](CCCNC(=N)N)NC1=O [PnCS1[W4K], CRRKARWNRC ^*] (H-CRRKARWNRC-NH2; disulfide 1-10)
inhibition at 100 µM, %: 75

compound: C[C@@H]1NC(=O)[C@H](CCCNC(=N)N)NC(=O)[C@H](C)NC(=O)[C@H](Cc2c[nH]c3ccccc23)NC(=O)[C@H](CCCNC(=N)N)NC(=O)[C@H](CCCNC(=N)N)NC(=O)[C@@H](N)CSSC[C@@H](C(N)=O)NC(=O)[C@H](CCCNC(=N)N)NC(=O)[C@H](CC(N)=O)NC1=O [PnCS1[W7A], CRRWARANRC ^*] (H-CRRWARANRC-NH2; disulfide 1-10)
inhibition at 100 µM, %: 92

*Q* Name the recorded inhibition at 100 µM of the item C[C@@H]1NC(=O)[C@H](Cc2c[nH]c3ccccc23)NC(=O)[C@H](CCCNC(=N)N)NC(=O)[C@H](CCCNC(=N)N)NC(=O)[C@@H](N)CSSC[C@@H](C(N)=O)NC(=O)[C@H](CCC(=O)O)NC(=O)[C@H](CC(N)=O)NC(=O)[C@H](Cc2c[nH]c3ccccc23)NC(=O)[C@H](CCCNC(=N)N)NC1=O [PnCS1[R9E], CRRWARWNEC ^*] (H-CRRWARWNEC-NH2; disulfide 1-10) in your answer.
*A* 49

*Q* Supply recorded inhibition at 100 µM for CC(=O)N[C@H]1CSSC[C@@H](C(=O)O)NC(=O)[C@H](CCCNC(=N)N)NC(=O)[C@H](CC(N)=O)NC(=O)[C@H](Cc2c[nH]c3ccccc23)NC(=O)[C@H](CCCNC(=N)N)NC(=O)[C@H](C)NC(=O)[C@H](Cc2c[nH]c3ccccc23)NC(=O)[C@H](CCCNC(=N)N)NC(=O)[C@H](CCCNC(=N)N)NC1=O [PnCS1Ac, Ac-CRRWARWNRC] (Ac-CRRWARWNRC-OH; disulfide 1-10) here.
*A* 0

*Q* Hello, please tell me recorded inhibition at 100 µM for this one: C[C@@H]1NC(=O)[C@H](Cc2c[nH]c3ccccc23)NC(=O)[C@H](CCCNC(=N)N)NC(=O)[C@H](CCCNC(=N)N)NC(=O)[C@@H](N)CSSC[C@@H](C(N)=O)NC(=O)[C@H](CCCNC(=N)N)NC(=O)[C@H](CC(N)=O)NC(=O)[C@H](CCCCN)NC(=O)[C@H](CCCNC(=N)N)NC1=O [PnCS1[W7K], CRRWARKNRC ^*] (H-CRRWARKNRC-NH2; disulfide 1-10)
*A* 71
